B1: Tyrosine-protein kinase Lck, residues 63 to 120; numbered along this chain, P06239 (parent)
chain: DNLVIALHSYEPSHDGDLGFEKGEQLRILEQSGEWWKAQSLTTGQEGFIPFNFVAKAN

- Variants of: B1
- EXPERIMENT DESCRIPTION: abundance fitness (aPCA) (normalised: wild type 0, dead -1); higher = more abundant; growth selection in yeast, the domain comes from the species named
- TEST CONTEXT: Homo sapiens
Each entry belongs to exactly one class, chosen by where its abundance fitness falls: 0: < -0.3; 1: ≥ -0.3 and < -0.1; 2: ≥ -0.1

> print(dat)
    variant  class.label
 1      L7S            1
 2     L29G            0
 3      V4L            2
 4     E21L            1
 5     E30A            1
 6     E21A            2
 7     N52T            1
 8     E46A            2
 9     Y10K            1
10     I49M            0
11     S13F            0
12     S13E            2
13     T42Q            2
14     L41R            0
